I'd be grateful if you could share measured Kd for these entries.
TESTED ON: T1, MBP-SUV39H1 1-106 (NTE + chromodomain) (Homo sapiens, UniProt O43463 1-106)
T1 sequence: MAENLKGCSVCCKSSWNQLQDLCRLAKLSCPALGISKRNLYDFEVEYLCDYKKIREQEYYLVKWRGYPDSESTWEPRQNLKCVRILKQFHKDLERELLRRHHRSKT
ASSAY INFO: EMSA; 20 mM Tris-HCl pH 7.4, 50 mM NaCl, 10% glycerol, ~4 U RNase inhibitor, room temperature 10 min; native gel 0.5X TBE at 25 C; filter binding on nitrocellulose in the same buffer
ASSAY CONTEXT: protein: recombinant; tags: MBP; label: 32P
A number alone suffices; assume nM.

The measured Kd associated with ACCAAAAUCGAAGAAGGUAAACUGGUAAUCUGGAUUAACGGCGAUAAAGG (ssRNA) [ssRNA1, sense MBP 1-50] reads 61

The measured Kd associated with AUAUGGGAACCACUGAUCC (ssRNA) [sense 19mer ssRNA] reads 145

get_value(item= CCUUUAUCGCCGUUAAUCCAGAUUACCAGUUUACCUUCUUCGAUUUUGGU (ssRNA) [ssRNA2, antisense MBP 1-50] , readout=Kd) returns 64

The binder listed as GGGAUCAGUGGUUCCCAUA (ssRNA) [antisense 19mer ssRNA] has a reported Kd of 366
